# target.or.test.system: T1, human tenascin-C rCd4-His-FBG (rat; human, UniProt P05540 207-392, limits assumed)
# T1 construct: domain: domains 3 and 4; C-terminal FBG fusion; biotinylated in the ELISA and HTRF screens; also called Hu TNC; human TNC rCd4-His-FBG; not shown: 6His tag
# T1 sequence (chain (part 1 of 2)): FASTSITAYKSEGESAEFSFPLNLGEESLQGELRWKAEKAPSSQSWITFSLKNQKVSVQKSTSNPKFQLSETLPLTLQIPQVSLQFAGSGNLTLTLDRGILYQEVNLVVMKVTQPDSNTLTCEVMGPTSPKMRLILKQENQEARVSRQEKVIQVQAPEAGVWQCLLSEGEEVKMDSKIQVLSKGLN
# T1 sequence (chain (part 2 of 2)): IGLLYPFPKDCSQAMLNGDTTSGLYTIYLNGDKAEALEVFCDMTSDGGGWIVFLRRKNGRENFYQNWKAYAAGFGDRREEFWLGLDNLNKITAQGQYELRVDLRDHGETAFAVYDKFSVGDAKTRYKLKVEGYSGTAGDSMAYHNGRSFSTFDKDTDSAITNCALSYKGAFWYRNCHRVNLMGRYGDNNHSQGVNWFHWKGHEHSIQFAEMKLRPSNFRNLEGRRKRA
# measurement.protocol: SPR, captured purified IgG4, 37 C
endpoint: pKd
For clarity, pKd is expressed as the negative log10 of concentration in mol/L.

Request: State the recorded pKd for this entry: 2A5 human IgG4 (antibody, V domains shown, human IgG4 with hinge S241P; also called 2A5 parent) VH: EVRLVQSGAEVKKPGASVKVSCKVSGYTLTELSMHWVRQAPGKGLEWMGGFDPEDGETIYAQKFQGRVTMTEDTSTDTAYMELSSLRSEDTAVYYCATAQKETYALTYWGQGTLVTVSS VL: DIQMTQSPASLPTSVGDRVTITCRASQYIQGFLNWYQQKPGKAPRLLIYAASTLQDGVPSRFSGSGYGTDFTLTISSLQPEDFATYYCQQSYSTPWTFGQGTKVEIKR
Response: 7.62

Request: Any idea what its pKd is? The binder is 165_13_C3 human IgG4 (antibody, V domains shown, also called IgG4 C3; C3 IgG4 MAb) VH: QVQLVESGGGLVQPGRSLRLSCAASGFTFDDYAMHWVRQAPGKGLEWVSGISGSGGSTYYADSVKGRFTISRDNAKNSLYLQMNSLRAEDTALYYCAKSYQSDEDAFDIWGQGTMVTVSS VL: DIQMTQSPASLPTPVGDRVTITCRASQYIQGFLNWYQQKPGKAPKLLIYDASNLETGVPSRFSGSGSGTDFTLTISSLQPEDFATYYCQQSYSTPQTFGQGTKVDIKR
Response: 10.14

Request: May I ask what pKd has been recorded for B12 human IgG4 (antibody, V domains shown, human IgG4 with hinge S241P; also called B12 parent; B12-hIgG4) VH: QVQLVESGGGLVQPGRSLRLSCAASGFTFDDYAMHWVRQAPGKGLEWVSGISGSGGSTYYADSVKGRFTISRDNAKNSLYLQMNSLRAEDTALYYCAKDISAVPDTFDIWGQGTMVTVSS VL: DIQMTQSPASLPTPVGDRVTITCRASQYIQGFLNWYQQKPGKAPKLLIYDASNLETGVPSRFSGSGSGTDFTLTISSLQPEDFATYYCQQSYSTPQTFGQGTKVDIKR ?
Response: 9.62

Request: // query pKd value for entry 160_01_A4 human IgG4 (antibody, V domains shown, human IgG4 with hinge S241P; also called Antibody 160 01 A4 (derived from 2A5)) VH: EVRLVQSGAEVKKPGASVKVSCKVSGYTLTELSMHWVRQAPGKGLEWMGGFDPEDGETIYAQKFQGRVTMTEDTSTDTAYMELSSLRSEDTAVYYCATAQKETLGNAIWGQGTLVTVSS VL: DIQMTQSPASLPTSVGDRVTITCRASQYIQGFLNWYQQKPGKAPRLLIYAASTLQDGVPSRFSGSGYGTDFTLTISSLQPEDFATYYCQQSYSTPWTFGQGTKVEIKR
Response: 9.68
